Study target: T1, HLA-B07:02 (human)
T1 construct: Stability assay: E. coli-expressed biotinylated heavy chain with 125I-labelled b2m; MS: BAP-tagged HLA in HEK293T cells; Treated as one molecule
Method summary: peptide-HLA stability, Example 9
Assay readout: Observed MHC stability (h)
# number only, unit h dropped from output

Known Observed MHC stability results, listed for orientation:
GPPARVPAV : 1.6
QPVLWTTPPL : 1.4
KPKRDGYMFL : 3.3

Observed MHC stability for MFATLQRSSL ?
0

Observed MHC stability for KPKRDGYMF ?
8.6

Observed MHC stability for EPHLALQPL ?
7.2

Observed MHC stability for FATLQRSSL ?
0.7
